system: A375 (melanoma); assay: In vitro cytotoxic activity MTT assay, A375; assay type: cell-based; conditions: Homo sapiens, A-375, 96 hours exposure, read-out: IC50, 50% inhibition of cell proliferation
QUANTITY KIND: IC50 (µM)

{"columns": ["ITEM SMILES", "QUANTITY KIND", "UNIT SPEC", "NUMERIC RESULT"],
 "data": [
  ["O=C(O)c1cc2c(Nc3cccc(Cl)c3)nc3cnccc3c2[nH]1", "IC50", "µM", 3.2]
]}

* * *

Biological target: recombinant human CK2 (RRββ-holoenzyme) (Homo sapiens)
Sequence (P68400 whole entry): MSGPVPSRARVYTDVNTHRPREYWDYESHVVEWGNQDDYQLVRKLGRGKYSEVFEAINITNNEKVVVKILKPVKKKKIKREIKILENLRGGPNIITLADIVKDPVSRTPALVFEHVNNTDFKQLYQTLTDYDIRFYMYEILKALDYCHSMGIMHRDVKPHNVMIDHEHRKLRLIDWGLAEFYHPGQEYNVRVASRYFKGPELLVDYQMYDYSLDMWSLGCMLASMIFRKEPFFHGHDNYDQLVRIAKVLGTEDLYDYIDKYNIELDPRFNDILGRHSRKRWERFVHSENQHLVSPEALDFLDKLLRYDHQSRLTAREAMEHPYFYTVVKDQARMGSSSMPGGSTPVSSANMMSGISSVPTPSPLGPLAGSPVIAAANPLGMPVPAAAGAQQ
Sequence (P67870 whole entry partner): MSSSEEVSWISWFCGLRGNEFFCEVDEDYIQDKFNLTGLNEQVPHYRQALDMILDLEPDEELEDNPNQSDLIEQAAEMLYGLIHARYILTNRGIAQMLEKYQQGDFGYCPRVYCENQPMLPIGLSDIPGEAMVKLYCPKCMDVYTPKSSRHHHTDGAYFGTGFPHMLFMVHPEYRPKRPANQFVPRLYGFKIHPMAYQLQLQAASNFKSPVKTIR
Assay: CK2 Kinase Assay (33P-ATP, filter plate)
Settings: final ATP concentration 15 μM, 10 min at 30° C.; read-out: protein kinase CK2 IC50
Description: CK2 Kinase Assay was conducted using the protocol as described in Pierre F. et al; J. Med. Chem. 2011, 54, 635-654. […]
pIC50: −log10 of the molar value.
QUANTITY KIND: pIC50

{"columns": ["ITEM SMILES", "NUMERIC RESULT"],
 "data": [
  ["O=C(O)c1cc2c(Nc3cccc(Cl)c3)nc3cnccc3c2[nH]1", 7.51]
]}
